# Test system: NCI-H23 lung
# experiment: NCI tumour cell line growth inhibition, 48 h; in the data active means GI50 below about 0.43 µM; inactive means the rest
Pick one and only one: y = active, n = inactive

// query // return assay outcome for CN1C[C@@H](c2ccc(Cl)cc2)[C@]2(NC(=S)N(c3ccc(F)c(Cl)c3)C2=O)[C@@]12C(=O)NC1C=CC(Cl)=C[C@H]12 (some centres not stated)
// result n

// query Entry O=C1OCC(C#Cc2ccccc2)=C1Br : call = ?
// result n

// query What was the test verdict on COc1ccc2c(c1)O/C(=C\c1ncc([N+](=O)[O-])n1C)C2=O ?
// result y

###

# Test system: RPMI-8226 leukemia
# experiment: NCI tumour cell line growth inhibition, 48 h
In this section, each of the compounds is paired with its reported TGI.

// query Look up TGI for this compound: CC(C)C[C@@H](NC(=O)[C@@H](Cc1cccc2ccccc12)NC(=O)N1CCOCC1)B(O)O
// result > 100 µM

// query May I ask what TGI has been recorded for CCOC(=O)CO/N=C\C1=CC(=O)C2CC1C2(C)C (stereo not given) ?
// result > 100 µM

###

# System: BT-549 breast
# experiment: NCI tumour cell line growth inhibition, 48 h
TGI by entry:

# annotated cases, reported TGI shown
CCOP(=O)(CN1CCNCCN(CP(=O)(OCC)OCC)CC1)OCC : > 100 µM
Cn1c(=O)c2[nH]c(CSCc3ccccc3)nc2n(C)c1=O : > 100 µM
NC(=S)C1=C(N)Oc2c(c(=O)oc3ccccc23)C1c1ccc(Br)cc1 (configuration not stated) : > 100 µM

// query May I ask what TGI has been recorded for COc1cccc(/C=C2\COc3ccc(O)c(O)c3C2=O)c1 ?
// result 5.08 µM

// query If you can, please state the reported TGI value of O=C(CCN1CCOCC1)c1ccc(Oc2ccc(F)cc2)cc1 .
// result 35.9 µM

// query // returns reported TGI for input C#CCCCCC#Cc1ccccc1C(=O)C=[N+]=[N-]
// result > 100 µM

// query Tell me the measured TGI of O=[N+]([O-])c1cccc2nc3ccccc3c(NCCN(CCO)CCO)c12 , please.
// result 0.00875 µM

// query Would you kindly share the measured TGI for C=C1C(=O)O[C@@H]2[C@@H]3O[C@@H](C[C@@H]13)[C@](C)(O)CC/C=C(\C)CCC[C@H]2C ?
// result 4.86 µM

// query Could you tell me which TGI is on file for COc1ccc(/C=c2/s/c(=C(\C#N)c3nc4ccccc4[nH]3)n(-c3ccccc3)c2=O)cc1 ?
// result 54.8 µM

// query So what does the record say about TGI for O=C(O)CNCP(=O)(O)O ?
// result > 100 µM

// query Data request, read-out TGI, for O=C1CCC/C=C\C[C@H]2C=CC(=O)/C2=C/C[C@H](CCc2cccc(C(F)(F)F)c2)O1
// result 7.99 µM

// query Would you kindly share the measured TGI for Cn1c(-c2cccc(N)c2)[n+](C)c2ccccc21 ?
// result > 100 µM

// query Which TGI is reported for this compound? COC(=O)c1c(C)c2n(c1C)C(=O)C(c1ccccc1)=C2
// result > 100 µM

// query # input compound: C[C@@H](CO)C1=C(O)c2ccc3c(c2C(=O)C1=O)CCCC3(C)C ; wanted: its TGI
// result > 100 µM

// query Consider the compound shown here: CC(C)OP(=O)(OC(C)C)c1ncc(-c2ccc(C(F)(F)F)cc2)c(NC2CCCCCC2)n1 What is its recorded TGI?
// result > 10 µM
